Target: T1, Cdc25, P04821
T1 sequence (P04821 50-136, looked up): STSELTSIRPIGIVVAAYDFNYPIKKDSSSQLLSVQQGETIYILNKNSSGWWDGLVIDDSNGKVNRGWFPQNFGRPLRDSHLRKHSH
Assay: SPOT array
Details: median of control spots 969
MEASURED_METRIC: SPOT intensity

(I) STKKPRPPVKSKPKH
(II) KRKRFNLLLPKPYLT
Q. Please indicate which entry, I or II , has the lower recorded SPOT intensity value. When you have decided, please share the label of that item.
A. I
(I: 0, II: 32)
